biological target: F protein of wild type RSV A/Long (respiratory syncytial virus, strain …, UniProt P12568 26-574); assay: cell-based or functional assay
Sequence (P12568 26-574): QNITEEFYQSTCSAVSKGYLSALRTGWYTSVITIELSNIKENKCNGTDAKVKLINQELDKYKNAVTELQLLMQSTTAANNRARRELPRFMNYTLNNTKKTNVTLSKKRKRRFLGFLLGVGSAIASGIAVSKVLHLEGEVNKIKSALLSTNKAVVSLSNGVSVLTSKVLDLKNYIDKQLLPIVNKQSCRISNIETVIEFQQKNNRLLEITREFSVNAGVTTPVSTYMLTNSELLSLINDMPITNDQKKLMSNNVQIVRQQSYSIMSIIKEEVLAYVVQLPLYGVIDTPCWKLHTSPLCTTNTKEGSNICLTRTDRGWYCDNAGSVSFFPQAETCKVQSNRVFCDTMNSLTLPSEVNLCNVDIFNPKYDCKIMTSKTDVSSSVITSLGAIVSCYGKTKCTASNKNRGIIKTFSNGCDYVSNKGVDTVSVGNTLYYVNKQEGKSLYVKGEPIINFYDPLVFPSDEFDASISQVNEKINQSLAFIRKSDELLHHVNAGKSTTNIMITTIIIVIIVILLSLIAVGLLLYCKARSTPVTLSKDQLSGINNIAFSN
Classification field: enter 1 (yes) for Mean IC50 (Control), RSV microneutralization values not below 0.04 µg/mL, 0 (no) for values below it.

Would you please look over these solved cases?
INSERT INTO assay_data (binder, group_label) VALUES
  ('A12a6 (monoclonal antibody) (antibody, V domains shown) VH: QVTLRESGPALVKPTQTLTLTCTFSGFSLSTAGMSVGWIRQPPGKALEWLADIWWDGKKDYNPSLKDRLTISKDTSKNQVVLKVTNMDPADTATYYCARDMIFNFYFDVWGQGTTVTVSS VL: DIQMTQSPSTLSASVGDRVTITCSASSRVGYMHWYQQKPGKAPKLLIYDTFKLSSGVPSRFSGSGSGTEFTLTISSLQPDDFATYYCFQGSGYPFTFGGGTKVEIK', '0 (no)'),
  ('SYNAGIS® (antibody, V domains shown, also called SYNAGIS ®/SYNAGIS ® (HC/LC)) VH: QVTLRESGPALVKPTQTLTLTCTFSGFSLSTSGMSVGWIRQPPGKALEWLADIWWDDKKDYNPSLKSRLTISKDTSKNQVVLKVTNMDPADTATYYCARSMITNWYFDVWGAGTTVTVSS VL: DIQMTQSPSTLSASVGDRVTITCKCQLSVGYMHWYQQKPGKAPKLLIYDTSKLASGVPSRFSGSGSGTEFTLTISSLQPDDFATYYCFQGSGYPFTFGGGTKLEIK', '1 (yes)');

API: above_or_equal(metric=Mean IC50 (Control), RSV microneutralization, cutoff=0.04 µg/mL) for item A4B4 (monoclonal antibody) (antibody, V domains shown, also called A4B4/A4B4 (HC/LC)) VH: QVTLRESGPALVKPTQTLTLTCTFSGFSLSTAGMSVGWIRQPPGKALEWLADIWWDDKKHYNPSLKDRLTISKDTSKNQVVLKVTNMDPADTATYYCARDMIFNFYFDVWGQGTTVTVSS VL: DIQMTQSPSTLSASVGDRVTITCSASSRVGYMHWYQQKPGKAPKLLIYDTFFLDSGVPSRFSGSGSGTEFTLTISSLQPDDFATYYCFQGSGYPFTFGGGTKLEIK
0 (no)

Given P11d4 (Fab) (Fab, V domains shown) VH: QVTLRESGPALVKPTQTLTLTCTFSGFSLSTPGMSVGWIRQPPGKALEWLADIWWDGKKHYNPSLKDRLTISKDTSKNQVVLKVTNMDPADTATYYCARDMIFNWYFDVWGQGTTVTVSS VL: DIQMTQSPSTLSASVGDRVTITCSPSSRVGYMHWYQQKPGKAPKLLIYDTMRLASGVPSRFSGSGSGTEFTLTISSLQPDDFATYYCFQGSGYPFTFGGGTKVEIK , state whether its Mean IC50 (Control), RSV microneutralization is at least 0.04 µg/mL.
1 (yes)

Check if Mean IC50 (Control), RSV microneutralization >= 0.04 µg/mL (inclusive). Item: A13c4 (monoclonal antibody) (antibody, V domains shown) VH: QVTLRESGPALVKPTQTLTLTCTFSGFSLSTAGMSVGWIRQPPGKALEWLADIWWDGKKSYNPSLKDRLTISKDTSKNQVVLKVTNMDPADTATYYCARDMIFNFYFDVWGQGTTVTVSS VL: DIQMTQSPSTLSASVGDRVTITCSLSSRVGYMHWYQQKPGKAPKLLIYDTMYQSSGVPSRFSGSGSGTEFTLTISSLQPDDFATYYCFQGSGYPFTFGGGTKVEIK
0 (no)

Is the recorded value of Mean IC50 (Control), RSV microneutralization equal to or greater than 0.04 µg/mL for this binder? P12f4 (Fab) (Fab, V domains shown) VH: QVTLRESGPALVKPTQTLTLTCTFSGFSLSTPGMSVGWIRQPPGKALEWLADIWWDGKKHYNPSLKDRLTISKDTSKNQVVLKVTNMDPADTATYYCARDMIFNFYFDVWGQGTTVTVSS VL: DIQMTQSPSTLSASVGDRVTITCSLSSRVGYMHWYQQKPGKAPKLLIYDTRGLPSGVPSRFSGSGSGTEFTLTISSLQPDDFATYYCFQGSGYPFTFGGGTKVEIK
0 (no)

Evaluate A12a6 (Fab) (Fab, V domains shown) VH: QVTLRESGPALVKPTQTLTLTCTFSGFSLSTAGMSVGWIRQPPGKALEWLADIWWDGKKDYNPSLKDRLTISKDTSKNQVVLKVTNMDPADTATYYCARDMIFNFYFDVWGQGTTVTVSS VL: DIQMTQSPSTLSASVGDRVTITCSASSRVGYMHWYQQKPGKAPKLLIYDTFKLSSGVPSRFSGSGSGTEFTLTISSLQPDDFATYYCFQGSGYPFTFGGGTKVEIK : Mean IC50 (Control), RSV microneutralization at minimum 0.04 µg/mL?
0 (no)
